Assay type: physicochemical
RUN PARAMETERS: SGF with pepsin, pH 1.5, 37° C., 0.5 mM; time 5 min
Condition 1 Conversion (%) for assorted compounds
Param answer (str): number followed by unit.

# example entries with known answers
COc1ccc([C@@]23CCC(=NNCc4cccc(C)c4)C[C@@H]2N(C)CC3)cc1OC [Compound 367]	100%
COc1ccc([C@@]23CCC(=NOCC4CC4)C[C@@H]2N(C)CC3)cc1OC [Compound 205]	0%

Which Condition 1 Conversion (%) is reported for this compound? COc1ccc([C@@]23CCC(=NNC(=O)Nc4cccc(O)c4)C[C@@H]2N(C)CC3)cc1OC [Compound 251]
100%

// returns reported Condition 1 Conversion (%) for input COc1ccc([C@@]23CCC(=NO)C[C@@H]2N(C)CC3)cc1OC (mixture of isomers) [Compound 037]
0%

Please give the measured Condition 1 Conversion (%) for this compound: COc1ccc([C@@]23CCC(=NOCCC45CC6CC(CC(C6)C4)C5)C[C@@H]2N(C)CC3)cc1OC [Compound 276]
0%

Which value of Condition 1 Conversion (%) has been reported for COc1ccc([C@@]23CCC(=NOc4ccccc4)C[C@@H]2N(C)CC3)cc1OC [Compound 207] in the records?
0%

Give the measured Condition 1 Conversion (%) of COc1ccc([C@@]23CCC(=NNC(=O)c4ccc(F)cc4)C[C@@H]2N(C)CC3)cc1OC [Compound 220] .
100%
